Molecular target: CFTR (Homo sapiens, UniProt P13569)
Sequence (P13569 with tags, fused parts or gaps DEL508-508): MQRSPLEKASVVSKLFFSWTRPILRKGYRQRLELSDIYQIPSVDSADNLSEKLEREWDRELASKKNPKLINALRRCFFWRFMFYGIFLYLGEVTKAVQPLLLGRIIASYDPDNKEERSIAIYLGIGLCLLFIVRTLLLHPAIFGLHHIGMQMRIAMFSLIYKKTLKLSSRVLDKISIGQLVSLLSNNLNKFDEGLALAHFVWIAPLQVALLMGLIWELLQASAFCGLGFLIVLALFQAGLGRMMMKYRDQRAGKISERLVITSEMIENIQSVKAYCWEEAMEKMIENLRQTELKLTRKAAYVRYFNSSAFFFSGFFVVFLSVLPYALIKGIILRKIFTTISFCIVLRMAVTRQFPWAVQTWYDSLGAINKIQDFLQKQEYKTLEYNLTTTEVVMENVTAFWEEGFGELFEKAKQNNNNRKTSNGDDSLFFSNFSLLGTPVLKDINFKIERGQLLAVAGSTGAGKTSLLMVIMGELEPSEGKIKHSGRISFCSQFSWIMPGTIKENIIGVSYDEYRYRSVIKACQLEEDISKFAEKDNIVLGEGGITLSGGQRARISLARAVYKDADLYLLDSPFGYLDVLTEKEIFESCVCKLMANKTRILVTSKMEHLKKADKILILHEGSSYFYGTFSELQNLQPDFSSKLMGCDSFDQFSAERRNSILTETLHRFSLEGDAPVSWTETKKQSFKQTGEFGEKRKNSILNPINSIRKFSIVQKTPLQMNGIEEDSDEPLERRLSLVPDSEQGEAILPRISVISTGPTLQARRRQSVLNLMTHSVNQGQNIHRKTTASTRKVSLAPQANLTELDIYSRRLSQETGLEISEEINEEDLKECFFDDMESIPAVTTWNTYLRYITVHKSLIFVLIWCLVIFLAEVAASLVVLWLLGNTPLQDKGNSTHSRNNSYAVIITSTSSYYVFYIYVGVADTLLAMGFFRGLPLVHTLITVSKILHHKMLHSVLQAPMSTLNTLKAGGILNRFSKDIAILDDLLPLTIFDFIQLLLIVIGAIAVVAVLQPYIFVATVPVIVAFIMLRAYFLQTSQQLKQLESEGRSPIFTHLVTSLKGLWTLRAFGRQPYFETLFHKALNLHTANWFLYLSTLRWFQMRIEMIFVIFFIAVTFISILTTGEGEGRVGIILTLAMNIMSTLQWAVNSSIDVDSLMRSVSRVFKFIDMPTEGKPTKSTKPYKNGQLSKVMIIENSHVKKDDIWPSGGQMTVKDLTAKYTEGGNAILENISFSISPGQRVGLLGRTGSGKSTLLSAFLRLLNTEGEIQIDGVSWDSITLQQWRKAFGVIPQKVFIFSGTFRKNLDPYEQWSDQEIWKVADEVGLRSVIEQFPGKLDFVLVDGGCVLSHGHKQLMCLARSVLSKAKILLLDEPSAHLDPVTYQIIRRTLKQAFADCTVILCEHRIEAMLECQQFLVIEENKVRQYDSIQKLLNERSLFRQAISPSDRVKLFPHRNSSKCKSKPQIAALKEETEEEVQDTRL
Assay: Membrane potential dye, Enteroid Assay A
Assay type: cell-based
Conditions: Table 7; chloride transport as % of triple combination control (Enteroid Assay A)
attribute_measured: Ent. A Max Activity

Some compounds with known Ent. A Max Activity results, for comparison:
{"columns": ["compound", "system_name", "Ent. A Max Activity"],
 "data": [
  ["CC(=O)N1CCC2(CC1)CC(CN1C(=O)c3cccc(c3)S(=O)(=O)Nc3nc(cc(-c4c(C)cccc4C)n3)OC[C@H]1CC(C)C)C2", "CFTR (Homo sapiens, UniProt P13569)", "+++ (+++ is >60%)"],
  ["Cc1cccc(C)c1-c1cc2nc(n1)NS(=O)(=O)c1cccc(c1)CN(CC1CCOCC1)[C@H](CC(C)C)CO2", "CFTR (Homo sapiens, UniProt P13569)", "+++ (+++ is >60%)"],
  ["COc1ccc(CN2C(=O)c3cccc(c3)S(=O)(=O)Nc3nc(cc(-c4c(C)cccc4C)n3)OC[C@H]2C)cc1", "CFTR (Homo sapiens, UniProt P13569)", "++ (++ is 30-60%)"],
  ["CCN(CCO)c1ccc(CN2C(=O)c3cccc(c3)S(=O)(=O)Nc3nc(cc(-c4c(C)cccc4C)n3)OC[C@H]2CC(C)C)cn1", "CFTR (Homo sapiens, UniProt P13569)", "+++ (+++ is >60%)"],
  ["COc1ccc(CN2Cc3cccc(c3)S(=O)(=O)Nc3nc(cc(-c4c(C)cccc4C)n3)OC[C@H]2CC(C)C)cc1C(F)(F)F", "CFTR (Homo sapiens, UniProt P13569)", "++ (++ is 30-60%)"]
]}

Lab note: each compound below needs its Ent. A Max Activity filled in.
1. Cc1cccc(C)c1-c1cc2nc(n1)NS(=O)(=O)c1cccc(c1)C(=O)N(C)C(c1ccc(C(C)(C)C)cc1)CO2 (stereo not shown)
2. COc1ccc(CN2C(=O)c3cccc(c3)S(=O)(=O)Nc3nc(cc(-c4c(C)cccc4C)n3)OC[C@H]2CC2(C(F)(F)F)CC2)cc1 [Compound 678]
3. Cc1cccc(C)c1-c1cc2nc(n1)NS(=O)(=O)c1cccc(c1)C(=O)N(Cc1ccc(N3CCCC(O)C3)nc1)[C@H](CC(C)C)CO2 (stereo partly shown)
4. COC(=O)c1ccc(CN2C(=O)c3cccc(c3)S(=O)(=O)Nc3nc(cc(-c4c(C)cccc4C)n3)OC[C@H]2CC(C)C)cn1
5. Cc1cccc(C)c1-c1cc2nc(n1)NS(=O)(=O)c1cccc(c1)C(=O)N(CCC1CCOCC1)[C@H](CC(F)(F)F)CO2 [Compound 982]
6. Cc1cccc(C)c1-c1cc2nc(n1)NS(=O)(=O)c1cccc(c1)C(=O)N(Cc1ccc(N3CCC4(CC3)COC4)nc1)[C@H](CC(C)C)CO2
7. Cc1cccc(C)c1-c1cc2nc(n1)NS(=O)(=O)c1cccc(c1)C(=O)N(Cc1ccc(N3CCC(C(F)(F)F)CC3)nc1)[C@H](CC(C)C)CO2

Response line:
["++ (++ is 30-60%)", "++ (++ is 30-60%)", "+++ (+++ is >60%)", "+++ (+++ is >60%)", "++ (++ is 30-60%)", "+++ (+++ is >60%)", "++ (++ is 30-60%)"]

Prompt line: State its Ent. A Max Activity on CFTR (Homo sapiens, UniProt P13569): Cc1cccc(C)c1-c1cc2nc(n1)NS(=O)(=O)c1cccc(c1)C(=O)N(Cc1ccc(N3CCCC3)nc1)[C@H](CC(C)C)CO2
Response line: +++ (+++ is >60%)

---

Assignment: determine reported pEC50 for the given molecules.
Target: CFTR (Homo sapiens, UniProt P13569, DEL508-508)
Construct: endogenous in cells; host or cells: primary human bronchial epithelial cells from CF subjects (F508del/MF-HBE), differentiated at air-liquid interface
Sequence (P13569 with tags, fused parts or gaps DEL508-508): as above
Test: HBE assay: Ussing chamber assay of CFTR-mediated short-circuit currents
Type: cell-based
Details: Table 11; read-out: HBE EC50
Protocol: 1. Ussing Chamber Assay of CFTR-Mediated Short-Circuit Currents […] To isolate the CFTR-mediated short-circuit (ISC) current, F508del/MF-HBE grown on Costar® Snapwell™ cell culture inserts were mounted in an Ussing chamber and the transepithelial ISC was measured under voltage-clamp recording conditions (Vhold=0 mV) at 37° C. […] The CFTR-mediated ISC (μA/cm^2) for each condition was determined from the peak forskolin response to the steady-state current following inhibition. […]
pEC50: −log10 of the molar value.

Please review the entries below; each comes with its answer.
{"columns": ["molecule", "system_name", "pEC50"],
 "data": [
  ["Cc1cccc(C)c1-c1cc2nc(n1)NS(=O)(=O)c1cccc(c1)C(=O)N(Cc1nccc(C(C)(C)O)n1)[C@H](CC(C)(C)C)CO2", "CFTR (Homo sapiens, UniProt P13569, DEL508-508)", "> 6.00"],
  ["Cc1cccc(C)c1-c1cc2nc(n1)NS(=O)(=O)c1cccc(c1)C(=O)N(CC1CCN(CCC(C)(C)C)C1=O)[C@H](CC(C)(C)C)CO2 (stereo partly drawn) [Compound 652]", "CFTR (Homo sapiens, UniProt P13569, DEL508-508)", "> 6.00"]
]}

Field: next molecule
Prompt line: Report pEC50 for Cc1cccc(C)c1-c1cc2nc(n1)NS(=O)(=O)c1cccc(c1)C(=O)N(Cc1nccc(N(C)C3CCCC3)n1)[C@H](CC(C)(C)C)CO2 please.
Response line: 5.52 to 6.00

---

Biological target: CFTR (Homo sapiens, UniProt P13569, DEL508-508)
Construct: endogenous in cells; host or cells: primary human bronchial epithelial cells from CF subjects (F508del/MF-HBE), differentiated at air-liquid interface
Test: HBE2 assay: Ussing chamber assay of CFTR-mediated short-circuit currents
Assay type: cell-based
Conditions: 3 μM; F508del/MF-HBE cells; with 44 nM potentiator; 18-24 hours; 20% human serum

{"columns": ["molecule", "HBE2 Activity at 3 μM (%)"],
 "data": [
  ["Cc1cccc(C)c1-c1cc2nc(n1)NS(=O)(=O)c1cccc(c1)C(=O)N(Cc1cncc(N3CC[C@H]3C3CCC3)n1)[C@H](CC(C)(C)C)CO2 (stereo in doubt)", "+++ (+++ is >60+)"],
  ["Cc1cccc(C)c1-c1cc2nc(n1)NS(=O)(=O)c1cccc(c1)C(=O)N(Cc1coc(N(C)CC3CCC3)n1)[C@H](CC(C)(C)C)CO2", "+++ (+++ is >60+)"],
  ["Cc1cccc(C)c1-c1cc2nc(n1)NS(=O)(=O)c1cccc(c1)C(=O)N(Cc1cncc(N(C)CC3CC3)n1)[C@H](CC(C)(C)C)CO2", "+++ (+++ is >60+)"]
]}

---

Target: CFTR (Homo sapiens, UniProt P13569, DEL508-508)
Construct: endogenous in cells; host or cells: primary human bronchial epithelial cells from CF subjects (F508del/MF-HBE), differentiated at air-liquid interface
Assay: HBE assay: Ussing chamber assay of CFTR-mediated short-circuit currents
Type: cell-based
Conditions: Table 13; at 10 μM; read-out: HBE Activity at 10 μM (%)
Can you tell me activation at 10 µM for the items I'm about to list?

For orientation, consider the following solved cases.
{"columns": ["compound", "activation at 10 µM"],
 "data": [
  ["Cc1cccc(C)c1-c1cc2nc(n1)NS(=O)(=O)c1cccc(c1)C(=O)N(CC(=O)N1CCC(OC(C)C)C1)[C@H](CC(C)(C)C)CO2 (stereo partly drawn)", "> 600%"],
  ["Cc1cccc(C)c1-c1cc2nc(n1)NS(=O)(=O)c1cccc(c1)C(=O)N(Cc1ccc(C(=O)N3CCC(C)(C)C3)cn1)[C@H](CC(C)(C)C)CO2", "> 600%"],
  ["Cc1cccc(C)c1-c1cc2nc(n1)NS(=O)(=O)c1cccc(c1)C(=O)N(CC(=O)N1CCCC3(CCC3)C1)[C@H](CC(C)(C)C)CO2", "> 600%"],
  ["Cc1cc(C2CCOCC2)ccc1CN1C(=O)c2cccc(c2)S(=O)(=O)Nc2nc(cc(-c3c(C)cccc3C)n2)OC[C@H]1CC(C)(C)C", "> 600%"],
  ["Cc1ccc2c(c1)CCN(C(=O)CN1C(=O)c3cccc(c3)S(=O)(=O)Nc3nc(cc(-c4c(C)cccc4C)n3)OC[C@H]1CC(C)(C)C)C2", "> 600%"],
  ["Cc1cccc(C)c1-c1cc2nc(n1)NS(=O)(=O)c1cccc(c1)C(=O)N(Cc1nc(C3CCC3)no1)[C@H](CC(C)(C)C)CO2", "> 600%"]
]}

Look at each compound and report its activation at 10 µM.
1. Cc1cccc(C)c1-c1cc2nc(n1)NS(=O)(=O)c1cccc(c1)C(=O)N(CC(=O)N(C)CC1CCOCC1)[C@H](CC(C)(C)C)CO2
2. Cc1cccc(C)c1-c1cc2nc(n1)NS(=O)(=O)c1cccc(c1)C(=O)N(Cc1ccc(C(C)(C)C)cc1O)[C@H](CC(C)(C)C)CO2
3. Cc1cccc(C)c1-c1cc2nc(n1)NS(=O)(=O)c1cccc(c1)C(=O)N(CC(=O)N1CCC(N(C)C)CC1)[C@H](CC(C)(C)C)CO2
4. Cc1cccc(C)c1-c1cc2nc(n1)NS(=O)(=O)c1cccc(c1)C(=O)N(Cc1ccc(C3CCOCC3)cc1F)[C@H](CC(C)(C)C)CO2
5. Cc1cccc(C)c1-c1cc2nc(n1)NS(=O)(=O)c1cccc(c1)C(=O)N(CC(=O)N1CCCCC1)[C@H](CC(C)(C)C)CO2

Response line:
> 600%
> 600%
> 600%
> 600%
> 600%

Prompt line: Please state recorded activation at 10 µM (tested on CFTR (Homo sapiens, UniProt P13569, DEL508-508)) of Cc1cccc(C)c1-c1cc2nc(n1)NS(=O)(=O)c1cccc(c1)C(=O)N(CC(=O)NCc1ccccc1)[C@H](CC(C)(C)C)CO2
Response line: > 600%

The reported numbers originate from patent US20240150377A1.
